- assayed-target: EBOV GP ectodomain residues 1-636 (GPec) (Zaire ebolavirus, strain  …, UniProt Q05320)
measurement-kind: binding result

5.6.c2998 (antibody, V domains shown) VH: EVQLVESGGGVVQPGGSLRLSCAASGFTFDDYAMHWVRQAPGKGLEWVSIITGDGGSRNYADSVKGRFTISRDNNKNSLYLQMNSLRSEDTALYYCAKEGGPDSSTFYYYGMDVWGQGTTVTVSS VL: DIQMTQSPSSVSASVGDRVTITCRASQDVSSWLAWYRQKPGRAPELLIYAASSLQSGVPSRFSGSGSGTDFTLTISSLQPEDFASYYCLQANSIPWTFGQGTKVEIK    binds
5.6.c3397 (antibody, V domains shown) VH: QVQLQESGPGLVKPSETLSLTCTVSGGSISTYYWSWIRQTPGKGLECIGYINYFGSTNYNPSLKSRVTISIDTSKNQFSLKLSSVTAADTAVYYCARHYGVGTYSGGWFDPWGQGTLVTVSS VL: DIQMTQSPSSLSASVGDRVTVTCRASQRINSFLNWYQQKPGKAPKLLIYAASSLQSGVPSRFSGTGSGTDFTLTISSLQPEDFATYYCQQSYSSPRTFGQGTKVEIR    binds
5.6.c3508 (antibody, V domains shown) VH: QVQLEQSGAEVKKPGASVKVSCQAAGYTFTSYGISWVRQAPGQGLEWMGWISADNGNTKYAQNLQARVTMTTDTSTSTAYMEVRRLRSDDTAVYYCARDSGDLSSLLYYGMDVWGQGTTVTVSS VL: DIQLTQSPSFLSASVGDRVTITCRASQGISSYLAWYQQKPGKAPKLLIDAASTLQSGVPSRISGSRSGTEYTLTISSLQPEDFATYYCQQLNNFPFTFGPGTKVDIK    binds
